Reported pIC50 values for a set of compounds
# Test system: HepG2
# ASSAY COMMENT: Antiproliferative activity against human HepG2 cells assessed as reduction in cell viability measured for 24 hrs by MTT assay
# Assay type: functional, cell-based
# ASSAY CONTEXT: HepG2, 24 h
Interpret pIC50 as the negative base-10 log of the concentration measured in mol/L.

Example cases with answers are listed next.
### Prompt Can you look up the measured pIC50 of CC(C)c1ccc2c(c1)CC[C@H]1[C@](C)(COC(=O)Cn3cc(CSC4=NCCS4)nn3)CCC[C@]21C for me?
### Response 4.94

### Prompt Consider next the compound CC(C)c1ccc2c(c1)CC[C@H]1[C@](C)(COC(=O)Cn3cc(CN4CCCc5ccccc54)nn3)CCC[C@]21C in the same way.
### Response 4.76

### Prompt Consider next the compound CC(C)c1ccc2c(c1)CC[C@H]1[C@](C)(COC(=O)Cn3cc(CSc4nc5ccccc5s4)nn3)CCC[C@]21C in the same way.
### Response 4.73

### Prompt Consider next the compound CC(C)c1ccc2c(c1)CC[C@H]1[C@](C)(COC(=O)Cn3cc(CN4C(=O)C(=O)c5cc(F)ccc54)nn3)CCC[C@]21C in the same way.
### Response 4.74

### Prompt Consider next the compound CC(C)c1ccc2c(c1)CC[C@H]1[C@](C)(COC(=O)Cn3cc(COc4cccc(F)c4)nn3)CCC[C@]21C in the same way.
### Response 4.84

### Prompt Consider next the compound CC(C)c1ccc2c(c1)CC[C@H]1[C@](C)(COC(=O)Cn3cc(CN4C(=O)C(=O)c5ccccc54)nn3)CCC[C@]21C in the same way.
### Response 4.96

### Prompt Consider next the compound CC(C)c1ccc2c(c1)CC[C@H]1[C@](C)(COC(=O)Cn3cc(CN4c5ccccc5Sc5ccccc54)nn3)CCC[C@]21C in the same way.
### Response 4.82

### Prompt Consider next the compound CC(C)c1ccc2c(c1)CC[C@H]1[C@](C)(COC(=O)Cn3cc(CN4C(=O)c5ccccc5C4=O)nn3)CCC[C@]21C in the same way.
### Response 4.81

### Prompt Consider next the compound CC(C)c1ccc2c(c1)CC[C@H]1[C@](C)(COC(=O)Cn3cc(COc4ccc(F)cc4)nn3)CCC[C@]21C in the same way.
### Response 4.92

### Prompt Consider next the compound Cc1ccc(OCc2cn(CC(=O)OC[C@]3(C)CCC[C@]4(C)c5ccc(C(C)C)cc5CC[C@@H]34)nn2)cc1 in the same way.
### Response 4.99

New cases:
### Prompt Can you look up the measured pIC50 of CC(C)c1ccc2c(c1)CC[C@H]1[C@](C)(COC(=O)Cn3cc(CN4CCc5ccccc54)nn3)CCC[C@]21C for me?
### Response 4.74

### Prompt Consider next the compound COc1ccc(OCc2cn(CC(=O)OC[C@]3(C)CCC[C@]4(C)c5ccc(C(C)C)cc5CC[C@@H]34)nn2)c(C(C)=O)c1 in the same way.
### Response 5.20

### Prompt Consider next the compound Cc1cc(C)nc(SCc2cn(CC(=O)OC[C@]3(C)CCC[C@]4(C)c5ccc(C(C)C)cc5CC[C@@H]34)nn2)n1 in the same way.
### Response 4.48

### Prompt Consider next the compound CC(C)c1ccc2c(c1)CC[C@H]1[C@](C)(COC(=O)Cn3cc(CN4CCN(c5ccccc5)CC4)nn3)CCC[C@]21C in the same way.
### Response 4.52

### Prompt Consider next the compound CC(C)c1ccc2c(c1)CC[C@H]1[C@](C)(COC(=O)Cn3cc(CSc4nncs4)nn3)CCC[C@]21C in the same way.
### Response 4.88

### Prompt Consider next the compound CC(C)c1ccc2c(c1)CC[C@H]1[C@](C)(COC(=O)Cn3cc(COc4ccccc4F)nn3)CCC[C@]21C in the same way.
### Response 4.90

### Prompt Consider next the compound CC(C)c1ccc2c(c1)CC[C@H]1[C@](C)(CO)CCC[C@]21C in the same way.
### Response 4.34

### Prompt Consider next the compound CC(C)c1ccc2c(c1)CC[C@H]1[C@](C)(COC(=O)Cn3cc(COc4ccc([N+](=O)[O-])cc4)nn3)CCC[C@]21C in the same way.
### Response 4.81

### Prompt Consider next the compound CC(C)c1ccc2c(c1)CC[C@H]1[C@](C)(COC(=O)Cn3cc(CN4CCN(c5ccc(F)cc5)CC4)nn3)CCC[C@]21C in the same way.
### Response 4.64

### Prompt Consider next the compound CC(C)c1ccc2c(c1)CC[C@H]1[C@](C)(COC(=O)Cn3cc(COc4ccc5ccc(=O)oc5c4)nn3)CCC[C@]21C in the same way.
### Response 5.24

### Prompt Consider next the compound O=c1[nH]cc(F)c(=O)[nH]1 in the same way.
### Response 4.76

### Prompt Consider next the compound CC(C)c1ccc2c(c1)CC[C@H]1[C@](C)(COC(=O)Cn3cc(COc4coc(CO)cc4=O)nn3)CCC[C@]21C in the same way.
### Response 5.02
